# test-protocol: Quantitative High-Throughput drug screen in 47 multiple myeloma cell lines against the NCATS MIPE library collection: OCIMY7_PLB cell viability assay (AID 1918987); further: nearly all actives have a fitted effect of over 65% in size
# experimental-conditions: OCI-MY7 myeloma viability, CellTiter-Glo ATP, 48 h
Records with an inconclusive call do not appear. Active and inactive are the calls of the source. The call rests on the fitted dose curve; in most records, active means well fitted cell-killing curve with a large enough effect; inconclusive means small, poorly fitted or top-dose-only effect, or effect the other way; inactive means no such curve, though single readings can be large or run the other way.
Parameter call: string, one of TRUE = active, FALSE = inactive

Previously resolved entries follow.
molecule: Nc1nc(F)nc2c1ncn2[C@@H]1O[C@H](COP(=O)(O)O)[C@@H](O)[C@H]1O
assigned-class: TRUE

molecule: O=C(O)c1ccccc1C(=O)Nc1ccc(-c2ccccc2)cc1
assigned-class: FALSE

molecule: CO[C@H]1C[C@@H]2CC[C@@H](C)[C@@](O)(O2)C(=O)C(=O)N2CCCC[C@@H]2C(=O)O[C@H]([C@@H](C)C[C@@H]2CC[C@H](O)[C@H](OC)C2)CC(=O)[C@H](C)C=C(C)[C@@H](O)[C@@H](OC)C(=O)[C@H](C)C[C@H](C)C=CC=CC=C1C
assigned-class: TRUE

molecule: C[C@]12CC[C@@H]3c4ccc(O)cc4C[C@@H](CCCCCCCCCS(=O)CCCC(F)(F)C(F)(F)F)[C@H]3[C@H]1CC[C@H]2O (stereo partly specified)
assigned-class: TRUE

molecule: Nc1ncnc2c1ncn2[C@@H]1O[C@H](CO)C[C@@H]1O
assigned-class: FALSE

Which outcome did this test record for the molecule COc1cc2ncnc(Nc3ccc(F)c(Cl)c3)c2cc1OCCCN1CCOCC1 ?
TRUE

What call does the record list for O=C(NCc1ccccc1)c1csc(Nc2ccncn2)n1 ?
TRUE

Please state the recorded outcome for this molecule: O=C(Nc1cc(Cl)cc2c1[nH]c1cnccc12)c1cccnc1
TRUE

Tell me the assay call for CC=C(C)C(=O)O[C@H]1C(C)=C[C@]23C(=O)[C@@H](C=C(CO)[C@@H](O)[C@]12O)[C@H]1[C@@H](C[C@H]3C)C1(C)C please.
TRUE

Test call for this molecule, please: CC[C@@]1(O)C[C@H](O[C@H]2C[C@H](N(C)C)[C@H](O[C@H]3C[C@H](O)[C@H](O[C@H]4CCC(=O)[C@H](C)O4)[C@H](C)O3)[C@H](C)O2)c2c(cc3c(c2O)C(=O)c2c(O)cccc2C3=O)[C@@H]1C(=O)OC
TRUE
